Reference source: patent US8492331B2

assay: Serum melatonin pharmacokinetics after oral melatonin, radioimmunoassay (Example 1); type: in vivo, Dogs; details: dog, serum; melatonin 1 mg/kg BW oral at 12:00 pm; sample 11:00 am (before dosing)
Assay endpoint: concentration at -1 h

• COc1ccc2[nH]cc(CCNC(C)=O)c2c1 = 0.5 pg/mL

====

test: Serum melatonin pharmacokinetics after oral melatonin, radioimmunoassay (Example 1); type: in vivo, Dogs; conditions: dog, serum; melatonin 1 mg/kg BW oral at 12:00 pm; sample 12:30 pm
Assay endpoint: concentration at 0.5 h (ng/mL)

- COc1ccc2[nH]cc(CCNC(C)=O)c2c1: 10.7

====

assay: in vivo; conditions: both, Labrador Retriever, dog, serum, oral, 15 mg/kg BW
Assay endpoint: concentration at 0.5 h (ng/mL)

• CC1=C(C(=O)O)N2C(=O)[C@@H](NC(=O)[C@H](N)c3ccccc3)[C@H]2SC1 = 2010

====

assay: Serum melatonin pharmacokinetics after oral melatonin, radioimmunoassay (Example 1); assay type: in vivo, Dogs; settings: dog, serum; melatonin 1 mg/kg BW oral at 12:00 pm; sample 3:00 pm
Assay endpoint: concentration at 3 h

* COc1ccc2[nH]cc(CCNC(C)=O)c2c1 | 1.46 ng/mL

====

assay: in vivo; conditions: both, dog, serum, oral, 15 mg/kg BW
Assay endpoint: concentration at 1.5 h (µg/mL)

• CC1=C(C(=O)O)N2C(=O)[C@@H](NC(=O)[C@H](N)c3ccccc3)[C@H]2SC1 = 13.9

====

experiment: Serum melatonin pharmacokinetics after oral melatonin, radioimmunoassay (Example 1); assay type: in vivo, Dogs; conditions: dog, serum; melatonin 1 mg/kg BW oral at 12:00 pm; sample 1:00 pm
Assay endpoint: concentration at 1 h (ng/mL)

* COc1ccc2[nH]cc(CCNC(C)=O)c2c1 [Melatonin, 5-methoxy-N-acetyltryptamine] | 9.55

====

test: in vivo; conditions: both, dog, serum, oral, 15 mg/kg BW
Assay endpoint: concentration at 0.75 h (ng/mL)

- CC1=C(C(=O)O)N2C(=O)[C@@H](NC(=O)[C@H](N)c3ccccc3)[C@H]2SC1: 8190

====

assay: in vivo; settings: both, dog, serum, oral, 15 mg/kg BW
Assay endpoint: concentration at 4 h (ng/mL)

* CC1=C(C(=O)O)N2C(=O)[C@@H](NC(=O)[C@H](N)c3ccccc3)[C@H]2SC1 | 9900

====

assay: in vivo; conditions: both, Labrador Retriever, dog, serum, oral, 15 mg/kg BW
Assay endpoint: concentration at 2 h (ng/mL)

- CC1=C(C(=O)O)N2C(=O)[C@@H](NC(=O)[C@H](N)c3ccccc3)[C@H]2SC1: 11800

====

experiment: in vivo; settings: both, dog, serum, oral, 15 mg/kg BW
Assay endpoint: concentration at 0.25 h (ng/mL)

- CC1=C(C(=O)O)N2C(=O)[C@@H](NC(=O)[C@H](N)c3ccccc3)[C@H]2SC1 [Cephalexin, cephalexin]: 790

====

assay: Serum melatonin pharmacokinetics after oral melatonin, radioimmunoassay (Example 1); assay type: in vivo, Dogs; conditions: dog, serum; melatonin 1 mg/kg BW oral at 12:00 pm; sample 2:00 pm
Assay endpoint: concentration at 2 h

* COc1ccc2[nH]cc(CCNC(C)=O)c2c1 | 4.79 ng/mL

====

assay: Serum melatonin pharmacokinetics after oral melatonin, radioimmunoassay (Example 1); assay type: in vivo, Dogs; settings: dog, serum; melatonin 1 mg/kg BW oral at 12:00 pm; sample 1:30 pm
Assay endpoint: concentration at 1.5 h (ng/mL)

- COc1ccc2[nH]cc(CCNC(C)=O)c2c1: 8.97
